All values here come from patent EP4459280A1.

Test system: HMGCR
Assay: Immunoblotting for HMGCR in U2OS cells
Assay type: cell-based, human
Settings: Homo sapiens; U2OS w/o gln 24h, refed gln 8h; immunoblot; read-out: half-maximal effects of glutamine on HMGCR induction
pEC50: −log10 of the molar value.
endpoint-label: pEC50

Return reported pEC50; argument: NC(=O)CC[C@H](N)C(=O)O [glutamine] 3.30 to 3.60
